- Conditions: in water, 283.15 K
Value Kind: solubility (mole fraction)
Just the number, please, no unit attached.

Which value of solubility (mole fraction) has been reported for `O=C(Cn1cnnn1)N[C@@H]1C(=O)N2C(C(=O)O)=C(CSc3nncs3)CS[C@H]12` in the records?
1.27e-05

* * *

- Conditions: in water, 293.15 K
Value Kind: solubility (mole fraction)
Just the number, please, no unit attached.

Which value of solubility (mole fraction) has been reported for `O=C(Cn1cnnn1)N[C@@H]1C(=O)N2C(C(=O)O)=C(CSc3nncs3)CS[C@H]12` in the records?
1.92e-05

* * *

- Conditions: in ethyl acetate, 313.15 K
Value Kind: solubility (mole fraction)
Just the number, please, no unit attached.

Which value of solubility (mole fraction) has been reported for `O=C(Cn1cnnn1)N[C@@H]1C(=O)N2C(C(=O)O)=C(CSc3nncs3)CS[C@H]12` in the records?
0.00053
